Sourced from patent US20120189639A1

# target entity: T1, human GITR on naïve CD4+ T cells (human, UniProt Q9Y5U5 26-241)
# T1 sequence: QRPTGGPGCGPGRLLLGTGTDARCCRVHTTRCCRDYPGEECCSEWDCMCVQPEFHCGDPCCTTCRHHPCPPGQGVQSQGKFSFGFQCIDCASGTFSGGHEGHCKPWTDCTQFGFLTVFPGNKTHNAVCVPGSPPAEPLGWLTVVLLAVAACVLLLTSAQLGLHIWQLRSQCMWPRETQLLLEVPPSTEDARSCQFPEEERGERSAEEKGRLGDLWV
# procedure summary: cell-based or functional assay
proliferation of naïve CD4+ T cells, mean, at 12.6 ng/mL Ab reference
Reply with the value as a number alone.

// solved cases for proliferation of naïve CD4+ T cells, mean, at 12.6 ng/mL Ab follow
| binder | measured value |
| --- | --- |
| 31H6 (antibody, V domains shown, Parental rodent anti-human GITR monoclonal antibody from a hybridoma; kappa VL; also called 31H6.B7) VH: QVTLKESGPGILQPSQTLSLTCTFSGFSLSTYGVGVGWIRQPSGKGLEWLANIWWDDDKYYNPSLKNRLTISKDTSNNQAFLKITNVDTAETATYYCAQIKEPRDWFFEFWGPGTMVSVSS VL: DIQMTQTPSSMPASLGERVTIFCRASQGVNNYLTWYQQKPDGTIKPLIFYTSNLQSGVPSRFSGSGSGTDYSLSISSLEPEDFAMYYCQQYHGFPNTFGAGTKLELKR | 90500 |
| 1D8 (antibody, V domains shown, Parental rodent anti-human GITR monoclonal antibody from a hybridoma; kappa VL; also called 1D8.B5) VH: QVTLKESGPGILKPSQTLSLTCSFSGFSLSTSGMGVGWIRQPSGKGLEWLAHIWWDDDKYYSPSLKSQLTISKDTSRNQVFLKITSLDTADTATYYCVRSYYYGSSGAMDYWGQGTSVTVSS VL: DIVMTQTPLSLPVSLGDQASISCRSSQSLVHSDGNTYLHWYLQKPGQSPKLLIYKVSKRFSGVPDRFSGSGSGTDFTLKISRVEAEDLGVYFCSQSTHVPPTFGGGTKLEIKR | 115000 |

Query block: Which proliferation of naïve CD4+ T cells, mean, at 12.6 ng/mL Ab reading was recorded for the binder 35D8 (antibody, V domains shown, Parental rodent anti-human GITR monoclonal antibody from a hybridoma; kappa VL; also called 35D8.B10) VH: EVQLQESGPSLVKPSQTLSLTCSVTGDSITSGYWNWIRKFPGNKLEYMGYISYSGSTYYNPSLRGRISITRDTSKSQYYLQLSSVTTEDTATYYCSRRHLGSGYGWFAYWGQGTLVTVSA VL: DIVMTQSHKFMSTSVGDRVSITCKASQDVNTAVAWYQQKPGQSPKLLIYWASTRHTGVPDRFTGSGSGTDYALTINSVQAEDLALYYCQQHSYTPPWTFGGGTKLEIRR ?
Result block: 86200
